Assay: self-splicing fitness, log relative to wild type (ln ratio); higher = more splicing; Tetrahymena group I intron in knt gene, E. coli kanamycin selection, DiMSum; sequences stand for … in CUCUCU…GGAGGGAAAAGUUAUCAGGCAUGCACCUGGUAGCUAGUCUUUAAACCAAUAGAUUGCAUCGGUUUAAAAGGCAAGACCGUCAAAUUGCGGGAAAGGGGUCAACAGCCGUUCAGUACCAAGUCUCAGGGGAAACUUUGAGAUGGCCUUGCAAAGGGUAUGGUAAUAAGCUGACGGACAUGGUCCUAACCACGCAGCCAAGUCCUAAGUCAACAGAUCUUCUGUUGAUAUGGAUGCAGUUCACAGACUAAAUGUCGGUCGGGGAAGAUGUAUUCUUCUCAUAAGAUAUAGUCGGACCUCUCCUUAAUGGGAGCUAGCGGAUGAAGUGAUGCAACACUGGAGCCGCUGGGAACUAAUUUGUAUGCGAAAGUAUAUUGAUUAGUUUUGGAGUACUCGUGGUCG;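 also: selection with 25 µg/mL kanamycin versus none on LB agar overnight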
Conditions: 37 °C
Given measured self-splicing fitness (ln), output condition met if it is greater than or equal to -2 and condition not met if not.

| CHAIN | DISCRETE LABEL |
| --- | --- |
| GAGGAGCAAUAUUACGCGUU | condition not met |
| GCGGAGCAAUAUUACGGAAU | condition not met |
| UGCAAGCAAUAUUACGUCAU | condition not met |
| UCUAAGCAAUAUUACGAUCG | condition met |
| UUGUAGCAAUAUUACGUAAG | condition met |
| CCGAAGCAAUAUUACGAUUG | condition met |
| ACUCAGCAAUAUUACGCAUC | condition met |
| GGGAAGCAAUAUUACGAUUA | condition met |
| CUCUAGCAAUAUUACGUUAU | condition not met |
| GUGUAGCAAUAUUACGUGUG | condition met |
| AACGAGCAAUAUUACGGCAA | condition met |
| CUGUAGCAAUAUUACGUGAU | condition met |
| ACGUAGCAAUAUUACGCGCG | condition met |
| ACGAAGCAAUAUUACGACUU | condition met |
| ACCGAGCAAUAUUACGAACG | condition met |
| UAGGAGCAAUAUUACGUUAA | condition not met |
| UAUUAGCAAUAUUACGUCAG | condition met |
| AGUUAGCAAUAUUACGCUAA | condition not met |
| CUGAAGCAAUAUUACGUGUA | condition not met |
| UAAGAGCAAUAUUACGGAAC | condition not met |
| CCCUAGCAAUAUUACGUGAG | condition not met |
| UUAGAGCAAUAUUACGGCAA | condition met |
| UAAUAGCAAUAUUACGUCGA | condition met |
| CAGUAGCAAUAUUACGCUGU | condition not met |
| UCGAAGCAAUAUUACGAGGC | condition not met |
| UCCCAGCAAUAUUACGAGAC | condition met |
| AGAUAGCAAUAUUACGCGAA | condition met |
| UGCGAGCAAUAUUACGUUAU | condition not met |
| GUGAAGCAAUAUUACGCCAG | condition met |
| CGGUAGCAAUAUUACGGACC | condition met |
| CACUAGCAAUAUUACGGUUG | condition met |
| GUGAAGCAAUAUUACGUUGU | condition met |
| GCACAGCAAUAUUACGAAUG | condition met |
